- Tested on: Fibroblast
- PROTOCOL_SUMMARY: Multiplex assay against human fibroblast
- Assay type: toxicity, cell-based
- CONDITION_INFO: 48 h, 10 µM, compound concentration 10 uM, replicate 1
Provide the reported Population Normal (%) of each item.
Just the number please, in %, no unit attached.

Look up Population Normal (%) for this molecule: CC(C)C[C@H](CO)Nc1nc(S[C@@H](C)c2ccccc2)nc2nc(N)sc12
97

Look up Population Normal (%) for this molecule: CN1CCC(C(=O)c2cccc(NC(=O)c3c(F)cc(F)cc3F)n2)CC1
94

Look up Population Normal (%) for this molecule: COc1c(Nc2ccc(S(C)(=O)=O)nc2C)ncnc1OC1CCN(C(=O)OC(C)C)CC1
91

Look up Population Normal (%) for this molecule: CCCCC[C@H](O)/C=C/[C@H]1[C@H](O)CC(=O)[C@@H]1CCCCCCC(=O)O
97

Look up Population Normal (%) for this molecule: Cc1cc(NC(=O)NCCN2CCC(O)(Cc3ccccc3)CC2)c2ccccc2n1
94

Look up Population Normal (%) for this molecule: Cc1c(Cc2ccc3ccccc3n2)c2cc(F)ccc2n1CC(=O)O
94

Look up Population Normal (%) for this molecule: CN1C[C@H](C(=O)N[C@]2(C)O[C@@]3(O)[C@@H]4CCCN4C(=O)[C@H](Cc4ccccc4)N3C2=O)C[C@@H]2c3cccc4[nH]cc(c34)C[C@H]21.CS(=O)(=O)O [DIHYDROERGOTAMINE MESYLATE]
96

Look up Population Normal (%) for this molecule: COC(c1ccccc1)(c1ccccc1)[C@H](Oc1nc(C)cc(C)n1)C(=O)O
92

Look up Population Normal (%) for this molecule: Cc1cc(O)c(-c2ccc([C@@H](C)CN(C)C)cc2)c2c1[nH]c(=O)c1sccc12
89

Look up Population Normal (%) for this molecule: CC(F)(F)CN1CCOc2c(nn(-c3ccccc3Cl)c2-c2ccc(Cl)cc2)C1=O
98

Look up Population Normal (%) for this molecule: CC(C)(C)c1ccc(CSc2cnn(C(C)(C)C)c(=O)c2Cl)cc1
95

Look up Population Normal (%) for this molecule: COCCCN1CCC(NC(=O)c2cc(Cl)c(N)c3c2OCC3)CC1 [PRUCALOPRIDE]
97

Look up Population Normal (%) for this molecule: Cc1nn(C)c2nc(NNC(=O)Nc3cc(Cl)nc(Cl)c3)cc(C(C)C)c12
91

Look up Population Normal (%) for this molecule: C[C@H](NC(=O)CNC(=O)c1cccc(Cl)c1)c1ccccc1
92

Look up Population Normal (%) for this molecule: O=C(Nc1cc(-c2ccccc2)nn1-c1ccccc1F)c1ccc([N+](=O)[O-])cc1
92

Look up Population Normal (%) for this molecule: CN(C)C(=O)Cn1cc(-c2ccc(-c3nnc4ccccn34)cc2)cn1
97

Look up Population Normal (%) for this molecule: CCC(=O)OCC(=O)[C@@]1(OC(=O)CC)[C@@H](C)C[C@H]2[C@@H]3CCC4=CC(=O)C=C[C@]4(C)[C@@]3(Cl)[C@@H](O)C[C@@]21C [BECLOMETHASONE DIPROPIONATE]
93

Look up Population Normal (%) for this molecule: Cc1cc(-c2ccc3c(c2)CC[C@H]3N2CC3(CCN(C(=O)Cc4cn5cc(C)sc5n4)CC3)C2)ncn1
93

Look up Population Normal (%) for this molecule: COc1cc(OC2CCN(C(C)=O)CC2)ccc1C(=O)N1CCC(N2C(=O)OCc3ccccc32)CC1
94

Look up Population Normal (%) for this molecule: COc1cc2nc(N3CCN(C(=O)c4ccco4)CC3)nc(N)c2cc1OC.Cl [PRAZOSIN HYDROCHLORIDE]
98

Look up Population Normal (%) for this molecule: O=c1nc2[nH]c3ccccc3nc-2c(=O)[nH]1
93

Look up Population Normal (%) for this molecule: OCCCNc1cc(-c2ccnc(Nc3cccc(Cl)c3)n2)ccn1
85

Look up Population Normal (%) for this molecule: Cn1cc(C(=O)OCC2CCN(CCNS(C)(=O)=O)CC2)c2ccccc21
90

Look up Population Normal (%) for this molecule: Cc1cc(=O)n(C)c2cc(N3C(=O)CC[C@H](NS(=O)(=O)CC(C)C)[C@H]3c3ccc(Cl)cc3)ccc12
84

Where do the numbers come from? From ChEMBL document CHEMBL5058577.
